target: Relaxin receptor 1 (Homo sapiens); test: qHTS Assay for Agonists of the Relaxin Receptor RXFP1: RXFP1 SAR; conditions: HEK293T-RXFP1 cAMP TR-FRET, 30 min
Inconclusive results are not listed. Calls of active or inactive are those of the source. Calls come from the whole dose curve; as a rule, active = well fitted curve in the direction sought with a large enough effect; inconclusive = small, poorly fitted or top-dose-only effect, or another doubt; inactive = no such curve, though single readings can be large or run the other way.
Exercise: for every item that follows, state its recorded Potency.

Given the molecule `CC(C)(C)c1cccc(NC(=O)c2ccccc2NC(=O)C2CCCCC2)c1` , what is its reported Potency?
2650 nM (active)

Given the molecule `O=C(Cc1ccccc1)Nc1ccccc1C(=O)Nc1cccc(C(F)(F)F)c1` , what is its reported Potency?
8380 nM (active)

Given the molecule `O=C(Nc1cccc(F)c1)c1ccccc1NC(=O)C1CCCCC1` , what is its reported Potency?
13300 nM (active)

Given the molecule `COc1ccccc1Nc1ccccc1C(=O)Nc1cccc(C(F)(F)F)c1` , what is its reported Potency?
4710 nM (active)

Given the molecule `CSc1cccc(NC(=O)c2ccccc2NC(=O)C2CCCCC2)c1` , what is its reported Potency?
5290 nM (active)

Given the molecule `CCOc1ccccc1C(=O)Nc1ccccc1CNc1cccc(S(=O)(=O)C(F)(F)F)c1` , what is its reported Potency?
2650 nM (active)

Given the molecule `O=C(Nc1cccc(C(F)(F)F)c1)c1ccccc1NC(=O)C1CCC1` , what is its reported Potency?
2970 nM (active)

Given the molecule `CCSc1ccccc1C(=O)Nc1ccccc1C(=O)Nc1cccc(S(=O)(=O)C(F)(F)F)c1` , what is its reported Potency?
529 nM (active)

Given the molecule `CCCCC(=O)Nc1ccccc1C(=O)Nc1cccc(C(F)(F)F)c1` , what is its reported Potency?
5290 nM (active)

Given the molecule `O=C(Nc1cccc(S(=O)(=O)C(F)(F)F)c1)c1ccccc1NC(=O)c1ccccc1OCC(F)(F)F` , what is its reported Potency?
66.6 nM (active)

Given the molecule `CCCCOc1ccccc1C(=O)Nc1ccccc1C(=O)Nc1cccc(S(=O)(=O)C(F)(F)F)c1` , what is its reported Potency?
47.1 nM (active)

The reported numbers originate from PubChem BioAssay AID602256.
